# System: OVCAR-3 ovarian
# assay-notes: NCI tumour cell line growth inhibition, 48 h
For each entry below, report its TGI value.

Given the molecule COC([CH2][Hg][n]1cnc2c1c(=O)n(C)c(=O)n2C)CN1C(=O)c2ccccc2S1(=O)=O (centres undefined) , what is its reported TGI?
> 100 µM

Given the molecule Cc1ccc(CN2CCC(C(=O)Nc3ccc(-c4cc5ccccc5[nH]4)cc3)CC2)o1 , what is its reported TGI?
> 100 µM

Given the molecule CC(C)=CCc1c2c(c3occ(-c4ccc(O)cc4)c(=O)c3c1O)CC(C(C)(C)O)O2 (centres undefined) , what is its reported TGI?
27.9 µM

Given the molecule CN1CCN(C2=NCCO2)CC1 , what is its reported TGI?
> 100 µM

Given the molecule COc1cc(Br)cc2cc(-c3cn4ccsc4n3)c(=O)oc12 , what is its reported TGI?
> 100 µM

Given the molecule C[C@]12CCC(O)CC1=CC[C@@H]1[C@@H]2CC[C@]2(C)C(=O)[C@H](n3ccnc3)C[C@@H]12 (some centres undefined) , what is its reported TGI?
> 100 µM

Given the molecule Cc1cc(NS(=O)(=O)c2ccc(Nc3c4ccccc4nc4c(C(=O)N5CCN(CCOS(C)(=O)=O)CC5)cccc34)cc2)no1 , what is its reported TGI?
> 100 µM

Given the molecule COc1cc2c(c(OC)c1OC)-c1ccc(NNC(N)=S)c(=O)cc1[C@@H](NC(C)=O)CC2 , what is its reported TGI?
0.623 µM

Given the molecule COc1cc2cc(OC)c3cc4c(cc3c2c(OC)c1OC)OCO4 , what is its reported TGI?
> 100 µM

Given the molecule CN1C(=O)C2CCC(=O)N2c2cccnc21 (centres undefined) , what is its reported TGI?
> 100 µM

Given the molecule CO/C(=N\N=C\c1ccc(C(F)(F)F)cc1)c1ccncc1 , what is its reported TGI?
> 10 µM

Given the molecule CNS(=O)(=O)NNS(=O)(=O)c1ccccc1 , what is its reported TGI?
> 100 µM

Given the molecule Cc1n[nH]c(=O)n1/N=C/c1ccc(Cl)cc1 , what is its reported TGI?
> 100 µM

Given the molecule COc1cccc(C(=O)O[C@H]2[C@@H]3[C@]4(OC(C)=O)CO[C@@H]4C[C@H](O)[C@@]3(C)C(=O)[C@H](OC(C)=O)C3=C(C)[C@@H](OC(=O)[C@H](O)[C@@H](NC(=O)OC(C)(C)C)c4ccco4)C[C@]2(O)C3(C)C)c1 , what is its reported TGI?
< 0.00375 µM
